Assay: clinical
Settings: human, in vivo, 2.4 mg
Where a name gives a salt, the structure may show the parent alone.
Property: concentration at 4 h (ng/mL)
Write the number in ng/mL without appending the unit.

Ask: Can you look up the measured concentration at 4 h of O=C1CC[C@@]2(O)[C@H]3Cc4ccc(O)c5c4[C@@]2(CCN3CC2CC2)[C@H]1O5 [Naltrexone HCl Solution] for me?
Result: 0.182

---

Test: clinical
Details: human, in vivo, 2.4 mg
Where a name gives a salt, the structure may show the parent alone.
Property: concentration at 16 h (pg/mL)
Write the number in pg/mL without appending the unit.

Ask: Can you look up the measured concentration at 16 h of O=C1CC[C@@]2(O)[C@H]3Cc4ccc(O)c5c4[C@@]2(CCN3CC2CC2)[C@H]1O5 [Naltrexone HCl Solution] for me?
Result: 9.96

Value source: patent US20140328930A1
